// hCA XII (Homo sapiens, UniProt O43570) log10 Ki records
Values are log10 of Ki in nM.

Solved entries (count: 4):
structure_notation | log10 Ki
NS(=O)(=O)c1ccc(CCNC(=O)C[C@@H](NC(=O)OCc2ccccc2)C(=O)NCCc2ccc(S(N)(=O)=O)cc2)cc1 | 1.39
CSCC[C@@H](NC(=O)OC(C)(C)C)C(=O)NCc1ccc(S(N)(=O)=O)cc1 | 0.59
CC[C@@H](C)[C@@H](NC(=O)OC(C)(C)C)C(=O)NCCc1ccc(S(N)(=O)=O)cc1 | 1.75
NS(=O)(=O)c1ccc(CCNC(=O)[C@@H](Cc2c[nH]c3ccccc23)NC(=O)OCc2ccccc2)cc1 | 0.74

Find log10 Ki (hCA XII (Homo sapiens, UniProt O43570)) for the entry `CC(C)[C@@H](NC(=O)OCc1ccccc1)C(=O)NCCc1ccc(S(N)(=O)=O)cc1` 0.86

All values here come from paper PMC6968503.
